measurement-protocol: protein stability index of a GFP-peptide fusion (yeast GPS) (PSI 1-4); higher = more stable; sorted into four equal gates, so the index is relative within each strain
stated-conditions: san1∆
Each entry belongs to exactly one class, chosen by where its protein stability index falls: LOW = under 2, MEDIUM = from 2 up to 3, HIGH = 3 and over

Hey, which category is PRLSHLSLTAVPSFLRP [GRR1] in, do you know? LOW

# classify by protein stability index band: ITHQGANSESGHYQAFI [UBP6] HIGH

Classify this sequence: YKVMHQIRACKDLKHII [PRP8] MEDIUM

Record MVMAGSKGSFINIAQMS [RPO21] — which class? LOW

Band assignment needed for GTCFGGSKLEDMSKILV [RET1] please. HIGH

Kindly identify the class of LVDLKKELAELKVQKLS [RPL35A] . LOW

Taken from the supplement of paper PMC9732359.
